TARGET: human c-Met (human, UniProt P08581 25-1390)
Sequence (P08581 25-1390): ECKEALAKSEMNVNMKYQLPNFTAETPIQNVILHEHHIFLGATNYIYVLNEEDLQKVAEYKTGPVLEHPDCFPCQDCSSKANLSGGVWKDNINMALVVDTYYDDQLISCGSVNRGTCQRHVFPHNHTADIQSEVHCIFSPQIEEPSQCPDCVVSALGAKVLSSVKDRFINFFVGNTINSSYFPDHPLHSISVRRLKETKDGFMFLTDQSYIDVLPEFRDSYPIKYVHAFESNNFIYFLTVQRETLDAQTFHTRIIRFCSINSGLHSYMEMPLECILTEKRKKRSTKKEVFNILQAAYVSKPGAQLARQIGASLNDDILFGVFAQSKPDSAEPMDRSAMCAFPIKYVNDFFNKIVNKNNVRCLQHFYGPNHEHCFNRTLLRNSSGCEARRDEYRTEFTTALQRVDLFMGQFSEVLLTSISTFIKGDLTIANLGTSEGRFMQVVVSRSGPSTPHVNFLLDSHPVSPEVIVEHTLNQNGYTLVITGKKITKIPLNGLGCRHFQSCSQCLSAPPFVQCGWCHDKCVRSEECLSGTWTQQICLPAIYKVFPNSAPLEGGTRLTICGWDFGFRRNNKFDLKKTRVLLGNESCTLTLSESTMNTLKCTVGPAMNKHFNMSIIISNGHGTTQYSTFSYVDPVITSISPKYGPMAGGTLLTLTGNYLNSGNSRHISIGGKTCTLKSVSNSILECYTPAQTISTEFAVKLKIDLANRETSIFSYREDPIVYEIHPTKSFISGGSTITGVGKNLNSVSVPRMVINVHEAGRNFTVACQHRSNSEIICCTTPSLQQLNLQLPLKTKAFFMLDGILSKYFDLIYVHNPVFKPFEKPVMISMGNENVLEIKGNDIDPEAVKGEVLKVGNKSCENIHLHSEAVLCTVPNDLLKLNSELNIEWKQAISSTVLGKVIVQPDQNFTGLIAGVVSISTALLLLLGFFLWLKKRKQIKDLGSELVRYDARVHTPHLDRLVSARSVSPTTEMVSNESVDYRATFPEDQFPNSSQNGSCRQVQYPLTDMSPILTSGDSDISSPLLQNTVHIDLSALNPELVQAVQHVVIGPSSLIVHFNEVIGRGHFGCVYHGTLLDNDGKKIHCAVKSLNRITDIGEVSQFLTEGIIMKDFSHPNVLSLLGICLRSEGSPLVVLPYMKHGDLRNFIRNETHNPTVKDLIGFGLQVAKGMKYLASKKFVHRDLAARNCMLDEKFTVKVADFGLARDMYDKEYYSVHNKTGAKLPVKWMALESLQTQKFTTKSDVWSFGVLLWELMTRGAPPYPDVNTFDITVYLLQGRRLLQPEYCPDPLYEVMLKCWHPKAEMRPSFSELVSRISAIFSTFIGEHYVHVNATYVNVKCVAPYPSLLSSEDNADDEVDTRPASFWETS
ASSAY NAME: cell-based or functional assay
MEASURED PARAMETER: % inhibition of HGF stimulated phospho-Met (ELISA, HCT116 cells), Ab 10 µg/mL (%)
The response must be a number in % with no trailing unit.

Query: Give a short answer stating reported % inhibition of HGF stimulated phospho-Met (ELISA, HCT116 cells), Ab 10 µg/mL for C8-6 (antibody, human IgG2, kappa, V domains shown, Named IgG4 kappa; also called C8-6 IgG4) VH: QVQLVQSGAEVKKPGASVKVSCKASGYTFTDYYMHWVRQAPGQGLEWMGRVNPNRGGTTYNQKFEGRVTMTTDTSTSTAYMELRSLRSDDTAVYYCARTNWLDYWGQGTTVTVSS VL: DIQMTQSPSSLSASVGDRVTITCSVSSSVSSIYLHWYQQKPGKAPKLLIYSTSNLASGVPSRFSGSGSGTDFTLTISSLQPEDFATYYCIQYSGYPLTFGGGTKVEIKR .
Result: 14.9
